System: Klebsiella neumoniae 806
Assay: Minimal inhibitory concentration
Format: cell-based
Conditions: IV A: Klebsiella neumoniae 806; read-out: Minimal inhibitory concentration
Quantity Kind: MIC (µg/mL)
# unit: µg/mL | format: bare number

C#CCSCC(=O)N[C@]1(OC)C(=O)N2C(C(=O)O)=C(COC(N)=O)CS[C@@H]21 | 3.1
CO[C@@]1(NC(=O)CSCN=[N+]=[N-])C(=O)N2C(C(=O)O)=C(COC(C)=O)CS[C@@H]21 | 6.2
CO[C@@]1(NC(=O)CSc2nnc(C)s2)C(=O)N2C(C(=O)O)=C(CSc3nnnn3C)CS[C@@H]21 | 12.5

Next, consider the following compound.
Input line: Give Klebsiella neumoniae 806 MIC for CO[C@@]1(NC(=O)CSCC#N)C(=O)N2C(C(=O)O)=C(COC(C)=O)CS[C@@H]21
Output line: 1.5
